Overview of recorded growth for various compounds
# Tested on: LOX IMVI melanoma
# MEASUREMENT_DESCRIPTION: NCI-60 one-dose screen, 48 h (100 = growth as untreated, 0 = no growth, -100 = all killed)
# STUDY_CONDITIONS: 10 µM unless noted
This is part of a sample that, as a whole, favours compounds with a hit. Of some 83,000 tested, about 20% had one in any assay.
Response body: numeric value in %, unit text excluded.

Some solved cases for reference:
>  <GIVEN_SMILES>
COc1ccc([N+](=O)[O-])c(/C=C/C(=O)c2ccccn2)c1

>  <READOUT>
growth

>  <UNIT_LABEL>
%

>  <VALUE_REPORTED>
41

$$$$
>  <GIVEN_SMILES>
CCn1c(=O)c2c(=O)c3c4c(oc3oc2c2ccccc21)C(=O)c1ccccc1C4=O

>  <READOUT>
growth

>  <UNIT_LABEL>
%

>  <VALUE_REPORTED>
32.4

$$$$

Next compound, please.
Query block: I have this compound here, Cc1cc(C)c(S(=O)(=O)N2CCN(c3cc4c(cc3F)c(=O)c(C(=O)O)cn4C3CC3)CC2)c(C)c1 , and I need its recorded growth.
Result block: 29.6

# credit: PubChem BioAssay (NCI)
